The reported measurements were obtained from patent US8466188B2.

attribute-measured: melting point

>  <compound>
CC1(C)Cc2cc3c(cc2O1)OCC31C(=O)N(CC(=O)Nc2ccccc2F)c2cccc(-c3cncnc3)c21 (centres unmarked)

>  <melting point>
> 250 °C

$$$$
>  <compound>
O=C1N(Cc2ccc(C(F)(F)F)o2)c2cccc(-c3cncnc3)c2C12COc1cc3c(cc12)CCO3 (centres unmarked)

>  <melting point>
263 to 266 °C

$$$$
>  <compound>
O=C1N(Cc2ccccn2)c2cccc(-c3cccnc3)c2C12COc1cc3c(cc12)CCO3 (centres unmarked)

>  <melting point>
> 200 °C

$$$$

The record that follows has no melting point shown yet.
Exercise: Reported melting point, compound CCCCCN1C(=O)C2(COc3cc4nc(C)sc4cc32)c2ccccc21 (centres unmarked) : ____
Solution: 105 to 107 °C

----------
attribute-measured: melting point

>  <molecule>
O=C1N(Cc2nnc(Cl)s2)c2ccccc2C12COc1cc3c(cc12)OCO3 (stereo not shown) [Example 10.85]

>  <melting point>
194 to 197 °C

$$$$

Exercise: Reported melting point, molecule CN1C(C)(C)CC(O)(CN2C(=O)C3(COc4cc5c(cc43)OCO5)c3ccccc32)CC1(C)C (stereo not shown) [Example 10.63] : ____
Solution: 210 to 214 °C

Exercise: Then Cc1oncc1CN1C(=O)C2(COc3cc4c(cc32)OCO4)c2ccccc21 (stereo not shown) [Example 10.34] ?
Solution: 159 to 161 °C

Exercise: Then O=C(CN1C(=O)C2(COc3cc(F)c(F)cc32)c2ccccc21)Nc1ccccc1F (stereo not shown) [Example 3.9] ?
Solution: 97 to 100 °C

Exercise: Then O=C(CN1C(=O)C2(COc3cc4c(cc32)CCO4)c2c(Br)cccc21)Nc1ccccc1F (stereo not shown) [Example 3.12] ?
Solution: 245 to 246 °C

Exercise: Then O=C(CN1C(=O)C2(COc3cc4c(cc32)CCO4)c2c(Cl)cccc21)Nc1ccccc1F (stereo not shown) [Example 3.6] ?
Solution: 243 to 245 °C

Exercise: Then O=C1N(Cc2ccc(OC(F)(F)F)cc2)c2ccccc2C12COc1cc3c(cc12)OCO3 (stereo not shown) [Example 10.38] ?
Solution: 99 to 101 °C
